- Measurement Target: T1, M2-2
- T1 construct: also called PD1 mutant M2-2
- Test Protocol: scFv-phage ELISA
So I've got a bunch of binders here, and I need their OD490 values.
Just the number.

# return recorded OD490 for entry PD1-49B9 (antibody, V domains shown, scFv-phage in the screening ELISA; later whole IgG) VH: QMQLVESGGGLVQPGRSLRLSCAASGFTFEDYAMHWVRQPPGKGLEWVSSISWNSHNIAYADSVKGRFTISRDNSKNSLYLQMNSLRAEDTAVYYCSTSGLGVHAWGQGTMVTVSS VL: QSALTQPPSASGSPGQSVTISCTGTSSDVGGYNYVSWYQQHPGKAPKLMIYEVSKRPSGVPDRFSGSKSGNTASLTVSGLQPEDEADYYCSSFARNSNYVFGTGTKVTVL 3.9

# return recorded OD490 for entry PD1-31F3 (antibody, V domains shown, scFv-phage in the screening ELISA; later whole IgG) VH: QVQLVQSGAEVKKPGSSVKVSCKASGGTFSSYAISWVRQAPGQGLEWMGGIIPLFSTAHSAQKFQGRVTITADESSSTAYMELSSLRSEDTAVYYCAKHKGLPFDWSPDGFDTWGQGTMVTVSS VL: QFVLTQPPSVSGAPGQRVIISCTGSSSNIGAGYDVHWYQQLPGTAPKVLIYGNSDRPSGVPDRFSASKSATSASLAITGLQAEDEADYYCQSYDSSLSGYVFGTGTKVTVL 3.3

# return recorded OD490 for entry PD1-45F4 (antibody, V domains shown, scFv-phage in the screening ELISA; later whole IgG) VH: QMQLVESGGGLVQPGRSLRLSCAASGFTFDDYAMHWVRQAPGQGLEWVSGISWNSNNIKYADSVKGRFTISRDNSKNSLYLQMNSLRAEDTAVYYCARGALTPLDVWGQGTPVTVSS VL: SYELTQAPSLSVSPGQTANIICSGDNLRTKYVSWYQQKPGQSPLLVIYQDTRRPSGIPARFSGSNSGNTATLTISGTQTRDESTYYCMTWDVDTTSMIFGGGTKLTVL 2.5

The measurements presented in this section are drawn from patent US20190248900A1.
